Here's what we have: pIC50 numbers for BACE-1 (Homo sapiens, UniProt P56817).
pIC50: −log10 of the molar value.
experimental_endpoint: pIC50

>>> value("CC[C@H](C)[C@@H](CNc1ccc(Cl)cc1)NC(=O)[C@H](Cc1ccccc1)C[C@H](O)[C@@H](N)COc1ccc(-c2ccc(F)cc2)c(OCCCOC)c1")
6.52
>>> value("CO[C@H](C[C@H](O)[C@H](COc1ccc(OCc2ccccc2)cc1)NC(=O)c1cccc(N(C)S(C)(=O)=O)c1)C(=O)N[C@H](C(=O)NCc1ccccc1)C(C)C")
5.34
>>> value("COCCCOc1cc(OC[C@H](N)[C@@H](O)C[C@@H](OC)C(=O)N[C@H](C(=O)NCc2ccc(Cl)cc2)C(C)C)ccc1-c1ccc(F)cc1")
5.57
>>> value("CC[C@H](C)[C@@H](CNc1ccc(Cl)cc1)NC(=O)[C@@H](C[C@H](O)[C@@H](N)COc1ccc(-c2ccc(F)cc2)c(OCCCOC)c1)C(C)C")
6.27
>>> value("CC[C@H](C)[C@H](NC(=O)[C@@H](C[C@H](O)[C@H](COc1ccc(-c2ccccc2)c(OCCCOC)c1)NC(=O)c1cc(C(=O)N[C@H](C)c2ccccc2)cc(N(C)S(C)(=O)=O)c1)OC)C(=O)NCc1ccc(Cl)cc1")
7.16
